Field: CC50. Provide a value for each of the compounds that follow.
test system: HT-29; experiment: Cytotoxicity against human HT29 cells after 48 hrs by SRB assay; format: functional, cell-based; conditions: Homo sapiens, HT-29, 48 h; read-out: LC50 (the source's name)
Numbers only, in nM.

Please look at the items below and tell me CC50 for each one, in order.
1. C/C=C1\NC(=O)[C@H](Cc2ccccc2)NC(=O)[C@@H](C(C)C)NC(=O)[C@@H]([C@H](C)CC)NC(=O)[C@H](NC(=O)[C@H](NC(=O)[C@H](CCCN)NC(=O)[C@H]2CCCCN2C(=O)[C@H](NC(=O)[C@@H](NC(=O)[C@@H](NC(=O)[C@H](NC(=O)CC[C@@H](C)CC)C(C)C)[C@@H](C)O)C(C)C)C(C)C)[C@H](C)CC)[C@H](C)OC(=O)[C@H](C(C)C)NC1=O
2. C/C=C1\NC(=O)[C@H](Cc2ccccc2)NC(=O)[C@@H](C(C)C)NC(=O)[C@@H]([C@H](C)CC)NC(=O)[C@H](NC(=O)[C@H](NC(=O)[C@H](CCCN)NC(=O)[C@H]2CCCN2C(=O)[C@H](NC(=O)CNC(=O)[C@@H](NC(=O)[C@H](NC(=O)CCCC(C)C)C(C)C)[C@@H](C)O)C(C)C)[C@H](C)CC)[C@H](C)OC(=O)[C@H](C(C)C)NC1=O

Result:
447
911

Origin of measurements: ChEMBL document CHEMBL1156597
